System: HOP-62 NSCLC
Test: NCI-60 one-dose screen, 48 h (100 = growth as untreated, 0 = no growth, -100 = all killed)
Conditions: 10 µM unless noted
This is part of a sample that, as a whole, favours compounds with a hit. Of some 83,000 tested, about 20% had one in any assay.
Entries and their growth
Numbers only; they are read as %.

Worked examples follow.
Nc1nn2c(-c3cc4ccccc4oc3=O)ccnc2c1N=Nc1ccccc1 | 22.3
CC[C@]12C=CCN3CC[C@]4(C(=C(C(=O)OC)C1)Nc1cc(OC)c([C@@H]5[C@H]6O[C@H]6[C@@]6(CC)CC(C(=O)OC)=C7Nc8cc(OC)ccc8[C@@]78CCN5[C@@H]68)cc14)[C@@H]32 | 74.1
COc1ccc(CCC2NCCc3c(Br)c4c(c(OC)c32)OCO4)cc1 (stereo not given) | 18.1
Cc1ccc(C(C)C)cc1Oc1cccc(-c2c(-c3ccc(C(F)(F)F)cc3)ncn2C2CCNCC2)n1 | -82.7

Form: compound = CCOc1ccc2[nH]c(=O)c(C(c3nnnn3CC3CCCO3)N3CCN(Cc4ccccc4)CC3)cc2c1 (stereo not given) ; growth = 102

Recorded result, Cc1ccc(/C=C/C(=O)c2ccc(S(=O)(=O)NCCNc3nc(N(C)C)nc(N4CCOCC4)n3)cc2)cc1 , growth: 114

Kindly note the recorded growth for Cc1ccc(C2CC(c3ccc(NC(=S)Nc4ccccc4)cc3)=NN2c2ccc(S(N)(=O)=O)cc2)cc1 (stereo not given) , which is 34.6

Sample COc1ccc(/C=C/c2nc3ccccc3c(=O)n2CC(=O)Nc2ccccc2)cc1 ; growth observed: 2.16

// field: growth; key: COc1ccc(-c2cc(C(=O)Oc3ccc(C=O)cc3OC)nn2-c2ccc(S(C)(=O)=O)cc2)cc1 ; value = 104

For CCCCNc1ccc2c3c(cccc13)C(=O)N(c1cccc(-c3nn(-c4ccccc4)cc3-c3nc4ccccc4s3)c1)C2=O the compound record lists growth as 107

Reported growth of O=C(N/N=C/c1ccc(B(O)O)s1)c1[nH]c2ccc(Br)cc2c1-c1ccccc1 : -69.8

###

Test system: HT29 colon
Assay: NCI-60 one-dose screen, 48 h (100 = growth as untreated, 0 = no growth, -100 = all killed)
Details: 10 µM unless noted
About 83,000 compounds went through this panel and 20% of them were active in at least one assay; those are over-represented in the sample as a whole.
Response field label takes fulfilled when growth is strictly below 40% and not fulfilled in all other cases.

Answered examples (3):
CN(C)c1ccc(/C=C/c2n(Cc3ccc4ccccc4c3)c3ccccc3[n+]2Cc2ccc3ccccc3c2)cc1 | fulfilled
C=CCn1c(O)c(N=Nc2nc(-c3cc4ccccc4oc3=O)cs2)c2ccccc21 | fulfilled
C[C@@H]1[C@H]2C[C@@H](C[C@H]1NCc1nc3ccccc3n1C1CCCCCC1)C2(C)C | not fulfilled

is_below(growth, 40%) for CCCCCCCOc1ccc(S(=O)(=O)Nc2ccc(C)c(F)c2C(=O)O)cc1 ?
not fulfilled

Confirm or reject: growth of COc1ccc(N=Nc2c(N)nn3c(N)c(C#N)c(-c4ccc(F)cc4)nc23)cc1 lies strictly below 40%
not fulfilled

Strictly below 40%: is that where growth of CCOC(=O)/C(F)=C/C1CC1C(c1ccccc1)c1ccccc1 (centres undefined) sits?
not fulfilled

State whether 40% exceeds growth recorded for FC(F)(F)CN1CCN(CCn2c(C(F)(F)F)cc3c(Cl)ncnc32)CC1 .
fulfilled

For COc1ccc(-c2cc(C(=O)Oc3ccc(C=O)cc3OC)nn2-c2ccc(S(C)(=O)=O)cc2)cc1 , is the recorded growth below the cut-off of 40%?
not fulfilled

###

Tested on: MALME-3M melanoma
Test: NCI-60 one-dose screen, 48 h
Settings: 10 µM unless noted
Compounds without any hit were thinned out: in the full panel of roughly 83,000, 20% have a hit. Active and inactive are the calls of the source. Rule for the calls: active = growth percent below 10; inactive = the rest.
Valid outcomes are listed here; reply with one: YES = active, NO = inactive

Consider the following illustrative entries.
Cc1ccc(C2CC(c3ccc(NC(=O)Nc4ccccc4)cc3)=NN2c2ccc(S(N)(=O)=O)cc2)cc1 (centres undefined) | YES
CCOc1ccccc1[C@H]1C(C(=O)c2ccc(Cl)cc2)C2(N[C@@H]1c1ccccc1)C(=O)Nc1ccccc12 (some centres undefined) | YES
Cc1cn(-c2cc(NC(=O)c3ccc(C)c(-n4cc(-c5cnc6cccnn56)nn4)c3)cc(C(F)(F)F)c2)cn1 | YES
Fc1ccc(N2CC(Cn3c(C(F)(F)F)cc4c(Cl)ncnc43)C2)c(F)c1 | NO
Cc1cccc(-c2ccccc2Oc2ccc3nnc(Cl)n3n2)c1 | NO

Any idea what this test logged for O=C(N/N=C/c1ccc(-c2cccc([N+](=O)[O-])c2)s1)c1[nH]c2ccc(Br)cc2c1-c1ccccc1 ?
NO

Recorded test call requested for CCOc1ccc2[nH]c(=O)c(C(c3nnnn3CC3CCCO3)N3CCN(Cc4ccccc4)CC3)cc2c1 (centres undefined)
NO

For this compound, state the assay outcome: C#CCN(C)CCCOc1ccc(N(C)C(=O)c2cc(C(C)C)c(O)cc2O)cc1Cl
YES

What is the recorded call for this compound in the test? CCCCCCCCc1ccc(C(=O)Nc2ccc(C)cc2C(=O)O)cc1
NO

###

Tested on: KM12 colon
Test: NCI-60 one-dose screen, 48 h (100 = growth as untreated, 0 = no growth, -100 = all killed)
Details: 10 µM unless noted
Compounds without any hit were thinned out: in the full panel of roughly 83,000, 20% have a hit.
Quick reference for growth among some compounds
The reply should contain only the number, in %.

CCCCC[C@@H]1C/C=C(\C)[C@@H](O)C(C)(C)C(=O)[C@@H](C)/C=C(\C)[C@@H]2C[C@H](O)C[C@](O)(CC(=O)O1)O2 | 44.6

Recorded result, COc1cccc2nc(Nc3cccc(NC(=O)c4ccc(CN5CCN(C)CC5)c(C(F)(F)F)c4)c3)ccc12 , growth: -51.1

Recorded growth (compound C/C(=N/O)c1ccc(NC(=O)CSc2nnc(-c3ccc(-c4nc5ccc(Cl)cc5[nH]4)cc3)o2)cc1 ): 2.42

growth reported for this compound Cn1cc(-c2cc3nc(-c4cn(C)c5ncccc45)cc(N)n3n2)c2cc(F)ccc21 : 61.8

GET /value?item= CCCSc1nnc(-c2c(C)nc3sccn23)o1 &field=growth returns 96.2

Measured growth, COc1ccc(C(=O)C[n+]2cccc3c4ccccc4ccc32)cc1 : 34.9

###

Reported growth values for the following compounds.
Test system: SK-MEL-2 melanoma
Test: NCI-60 one-dose screen, 48 h (100 = growth as untreated, 0 = no growth, -100 = all killed)
Settings: 10 µM unless noted
The panel holds about 83,000 compounds, 20% with a hit somewhere; the sample as a whole holds those more often. Active and inactive are the calls of the source. Rule for the calls: active = growth percent below 10; inactive = the rest.

Answered examples (2):
Fc1ccc(Nc2nnc(-c3c[nH]c4ccccc34)o2)cc1 | 96.7% (inactive)
CCOc1ccccc1[C@H]1C(C(=O)c2ccc(Cl)cc2)C2(N[C@@H]1c1ccccc1)C(=O)Nc1ccccc12 (some centres undefined) | -46.5% (active)

Looking up Nc1nnc(-c2cncc(Br)c2)c(-c2c[nH]c3ccc(Br)cc23)n1 , I see its growth listed as 55.4% (inactive)

Item: CC1=C(C(=O)OCc2ccccc2)C(c2ccc(N(C)C)cc2)n2c(nc3ccccc32)N1 (centres undefined) | growth: 96.5% (inactive)

The compound listed as Cc1nn(-c2ccccc2)c2ncn(CC(=O)N/N=C/c3ccccc3O)c(=O)c12 has a reported growth of 55% (inactive)

The value of growth measured for the compound c1n[nH]cc1-c1nc2ccc3[nH]ncc3c2c2c1CC1(CC2)COC1 turned out to be 18.3% (inactive)

// sample COc1ccc(C(=O)/C=C/c2ccc3c(c2)OCCO3)cc1S(N)(=O)=O , its growth was 114% (inactive)

Sure, the documented growth for O=C(c1ccc(O)cc1)C1[C@H](c2ccc(Cl)cc2)[C@@H](c2ccccc2)NC12C(=O)Nc1ccccc12 (some centres undefined) is -72.3% (active)

The reported growth of the compound COc1ccc2[nH]c(O)c(N=NC(=O)c3ccc4nc(-c5ccc(Cl)cc5)[nH]c4c3)c2c1 was 109% (inactive)

###

Reported growth by item:
System: DU-145 prostate
Assay: NCI-60 one-dose screen, 48 h (100 = growth as untreated, 0 = no growth, -100 = all killed)
Settings: 10 µM unless noted
Procedure: Cells are grown in 96 well plates and exposed to the test compound for 48 hours. Compounds are tested at a single concentration, which is 10^-5 M for most compounds. The reported endpoint is percent growth (GI% or GIPRCNT), where numbers from 0 - 100% represent growth inhibition, and numbers from -100% - 0 represent cell death. For example, a value of 40 represents 60% growth inhibition. A value of 0 means no net growth occurred over the course of the experiment. […]
Compounds without any hit were thinned out: in the full panel of roughly 83,000, 20% have a hit.
Could you give me the number in %? Just the number is fine.

// worked examples, growth included
CCCCNc1ccc2c3c(cccc13)C(=O)N(NCC(O)COc1ccc3c(C)cc(=O)oc3c1)C2=O (stereo not given) | 89.2
CC1=C(C(=O)OC(C)C)C(c2ccc(O)cc2)NC(=O)N1 (stereo not given) | 111
O=C(Nc1ccc(Br)cc1)Nc1ccc(-c2ccc3c(c2)NC(=O)/C3=C\c2ccc[nH]2)cc1 | 27.9
CC(Nc1ncnc2ccc(-c3ccc4oc(N)nc4c3)cc12)c1ccccc1 (stereo not given) | 14

Consider the additional compound presented here.
Form field growth, entry Cc1nc2sccn2c1-c1nnc(SCc2ccccc2)o1 : 96.6
